B1: F1*; the commonest letter at each place (parent)
chain: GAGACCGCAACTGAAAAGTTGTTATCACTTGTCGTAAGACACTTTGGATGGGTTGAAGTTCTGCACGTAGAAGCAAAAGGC

variants of: B1; assay: fraction ligated after 30 min (ligated reads / total reads); higher = more ligase activity; settings: with F1*sub RNA substrate (template-directed ligation), 42 °C
MEASURE NAME: fraction ligated

INSERT INTO assay_data (mut, value) VALUES
  ('T35C G38C', 0.815),
  ('G31C T43C', 0.811),
  ('T25C T44A', 0.788),
  ('T32G G38T', 0.799),
  ('A27C G55T', 0.792),
  ('T43A G46T', 0.81),
  ('T32G T43A', 0.812),
  ('T49A A57G', 0.792),
  ('G34A T43G', 0.799),
  ('A41G T43A', 0.817),
  ('C26T G38A', 0.823),
  ('T43G T44G', 0.809),
  ('C26A C40G', 0.793),
  ('A36C T43C', 0.806),
  ('G34T A39G', 0.808),
  ('C33T T43C', 0.822),
  ('T30G T43G', 0.795),
  ('A27T A48G', 0.794),
  ('T23A A39G', 0.819),
  ('T30G G55T', 0.819),
  ('T23C A27G', 0.781),
  ('A27T T43G', 0.784),
  ('A37G T45C', 0.803),
  ('A27G G38T', 0.824),
  ('C42A A56G', 0.781),
  ('A39G A56T', 0.781);
